Test system: rhinovirus HGP
Assay: Inhibition of viral cytopathogenic effect (c.p.e.) of rhinovirus HGP in HeLa cells
Assay type: cell-based, human rhinoviruses
Details: Enterovirus, HeLa, 48 h, read-out: IC50 against rhinovirus HGP (concentration inhibiting the viral c.p.e. by 50%)
readout: IC50

Recorded results for 5 molecules are shown here.
compound.structure.string | experimental.target | readout | reported
CCCOc1cc(OC)cc(OC(=O)CC)c1C(=O)/C=C/c1ccc(OC)cc1 | rhinovirus HGP | IC50 | 0.03 to 0.1 µg/mL
C=CCOc1ccc(/C=C/C(=O)c2c(O)cc(OC)cc2OC)cc1 | rhinovirus HGP | IC50 | 0.03 to 0.1 µg/mL
COc1ccc(/C=C/C(=O)c2c(OC)cc(OC)cc2OC(=O)[C@H](C)N)cc1 | rhinovirus HGP | IC50 | 0.03 to 0.1 µg/mL
CCC(=O)Oc1cc(OC)cc(OC)c1C(=O)C=Cc1ccco1 | rhinovirus HGP | IC50 | 0.1 to 0.3 µg/mL
COc1cc(O)c(C(=O)/C=C/c2ccc(OC)c(O)c2)c(OC)c1 | rhinovirus HGP | IC50 | 0.1 to 0.3 µg/mL

Kindly consider the entry below.
Task: Param readout = IC50; param system = rhinovirus HGP; param query = COc1cc(O)c(C(=O)C=Cc2ccco2)c(OC)c1 ; response: value
Output: 0.06 to 0.2 µg/mL

Taken from patent US4605674A.
